- Test system: Zika virus NS2B-NS3 protease (unlinked complex)
- METHOD DESCRIPTION: Primary screen GU Rhodamine qHTS for Zika virus inhibitors: Unlinked NS2B-NS3 protease assay (AID 1347159); further: nearly all actives have a fitted effect of over 60% in size
- CONDITION: Recombinant ZIKV NS2B-NS3 protease, Rhodamine110 substrate fluorescence; series mostly up to 107 µM
Results filed as inconclusive are left out. Activity calls are given as the source filed them. The call rests on the fitted dose curve; in most records, active means well fitted inhibition curve with a large enough effect; inconclusive means small, poorly fitted or top-dose-only effect; inactive means no such curve, though single readings can be large or run the other way.
Returns: one label drawn from active, inactive

Check out these entries, answers already filled in.
C[C@@H](NC(=O)c1ncnc(N)c1Cl)c1ncc(C(=O)Nc2cc(C(F)(F)F)c(Cl)cn2)s1; inactive
Cc1c(C(=O)Nc2ccc(N3C[C@@H](C)O[C@@H](C)C3)nc2)cccc1-c1ccc(OC(F)(F)F)cc1; inactive
CC1(C)CC(=O)c2c(C(F)(F)F)nn(-c3ccc(C(N)=O)c(NC4CCC(O)CC4)c3)c2C1 (centres undefined); inactive

Next:
// query # lookup: test call for Cc1cc2c(cc1C1(c3ccc(C(=O)O)cn3)CC1)C(C)(C)CCC2(C)C
// result active

---

- METHOD DESCRIPTION: Quantitative High-Throughput drug screen in 47 multiple myeloma cell lines against the NCATS MIPE library collection: OCIMY1_PLB cell viability assay (AID 1918979); further: nearly all actives have a fitted effect of over 35% in size
- CONDITION: OCI-MY1 myeloma viability, CellTiter-Glo ATP, 48 h; series mostly up to 45.8 µM
Results filed as inconclusive are left out. Activity calls are given as the source filed them. Calls follow the shape of the dose curve; as a rule, active = well fitted cell-killing curve with a large enough effect; inconclusive = small, poorly fitted or top-dose-only effect, or effect the other way; inactive = no such curve, though single readings can be large or run the other way.
Entry note: the call must match one of active, inactive

Worked set:
Cc1cn([C@@H]2C[C@@H](O)[C@H](CO)O2)c(=O)[nH]c1=O; inactive
Cc1ccc2c(c1)c1c(n2CCc2ccc(C)nc2)CCN(C)C1; inactive
COc1ccc2ccc(=O)oc2c1CC=C(C)C; active

// query Please indicate how the test categorized CC(=O)Nc1cccc(-n2c(=O)n(C3CC3)c(=O)c3c(Nc4ccc(I)cc4F)n(C)c(=O)c(C)c32)c1 .
// result active

// query What about this compound? CC(C)[C@H](O)C(=O)N[C@@H](C)C(=O)N[C@@H]1C(=O)N(C)CCc2ccccc21
// result inactive

// query Same for CN1C(=O)C(Cc2c[nH]c3ccccc23)NC1=S (centres undefined)
// result inactive

// query Similarly, CN(C)CCOc1ccc(-c2nc(-c3ccc4c(c3)CCC4=NO)c(-c3ccncc3)[nH]2)cc1 ?
// result active

// query Entry to check: CC[C@H](C)n1cc(C)c2c(C(=O)NCc3c(C)cc(C)[nH]c3=O)cc(-c3ccc(N4CCNCC4)nc3)cc21
// result active

// query Repeat with CN(C)CC[C@H](CSc1ccccc1)Nc1ccc(S(=O)(=O)NC(=O)c2ccc(N3CCN(Cc4ccccc4-c4ccc(Cl)cc4)CC3)cc2)cc1[N+](=O)[O-]
// result active

---

- METHOD DESCRIPTION: qHTS of pediatric cancer cell lines to identify multiple opportunities for drug repurposing: Primary screen for A673 cells (AID 1347092); further: nearly all actives have a fitted effect of over 45% in size
- CONDITION: A673 Ewing sarcoma viability, CellTiter-Glo ATP luminescence, 48 h; series mostly up to 46 µM
Inconclusive results are not listed. Activity calls are given as the source filed them. Calls follow the shape of the dose curve; as a rule, active = well fitted cell-killing curve with a large enough effect; inconclusive = small, poorly fitted or top-dose-only effect; inactive = no such curve, though single readings can be large or run the other way.
Allowed answers: active, inactive

O=C(O)CCNc1cc(N2CCc3ccccc3CC2)nc(-c2ccccn2)n1; active
CC1(C)C(N(O)C(=O)Nc2ccc(Cl)cc2)N(c2ccc(Cl)cc2)C(=O)N1CC(=O)NN=CC=Cc1ccc([N+](=O)[O-])o1 (configuration not stated); active
CCCCC(F)(F)[C@@]1(O)CC[C@H]2[C@H](CC(=O)[C@@H]2CCCCCCC(=O)O)O1; inactive
CN(C)CCN(C)C(=O)c1ccc(NC(=O)Nc2ccc(-c3nc(N4CCOCC4)c4ccn(CC(F)(F)F)c4n3)cc2)cc1; active
O=C(CC12CC3CC(CC(C3)C1)C2)Nc1cccc2nc(NCCNCCO)ccc12; active

// query Could you check what this test reported for CC(C)=CCCC(C)=CCCC(C)=CCCC(C)=CCCC(C)=CCCC(C)=CCCC(C)=CCCC(C)=CCCC(C)=CCO ?
// result inactive

// query Could you do the same for O=C1Nc2ccc(I)cc2C1=Cc1cc(Br)c(O)c(Br)c1 , please?
// result active

// query Same read-out for COc1cc([C@@H]2c3cc4c(cc3[C@@H](O[C@@H]3O[C@@H]5CO[C@@H](C)O[C@@H]5[C@H](O)[C@@H]3O)[C@H]3COC(=O)[C@H]23)OCO4)cc(OC)c1O ?
// result active

// query What about this compound? O=C(Nc1cccc(Cl)c1)Nc1ncc(CCNc2ncnc3ccsc23)s1
// result active
